test system: AVEFA; experiment: Pre-emergence herbicidal action against AVEFA; format: in vivo, Avena fatua; details: application rate 80 g/ha, scored visually after about 3 weeks vs untreated controls (100% = plants have died, 0% = like control plants)
This listing pairs molecules with measured Herbicidal action against [%] AVEFA.
Write down the numeric answer in % and omit the unit.

Record excerpt, results attached:
COC(=O)C1=CC[C@H](NC(=O)C2(C)CC(c3cccc(F)c3)=NO2)C1 (stereo partly shown): 90
CN(C)C(=O)C1=CCC(NC(=O)C2(C)CC(c3cccc(F)c3)=NO2)C1 (mixture of isomers) [IV-01]: 90
C=CC1(C(=O)NC2C=CC(C(=O)OC)C2)CC(c2cc(F)cc(F)c2)=NO1 (stereo not shown): 90
CCONC(=O)[C@@H]1C=C[C@H](NC(=O)C2(C)CC(c3cccc(F)c3)=NO2)C1 (stereo partly shown): 80
CN(C)C(=O)C1=CCC(NC(=O)C2(C)CC(c3cccc(F)c3)=NO2)C1 (mixture of isomers) [IV-02]: 90

Sample CC(C)C(C#N)NC(=O)C1C=CC(NC(=O)C2(C)CC(c3cc(F)cc(F)c3)=NO2)C1 (mixture of isomers) ; Herbicidal action against [%] AVEFA observed: 80

====

This listing pairs compounds with measured Herbicidal action against [%] PHBPU.
test system: PHBPU; experiment: Post-emergence herbicidal action against PHBPU; format: in vivo, Pharbitis purpurea; details: application rate 80 g/ha, rated visually about 3 weeks after treatment
Write down the numeric answer in % and omit the unit.

Record excerpt, results attached:
C=CC1(C(=O)N[C@H]2CC=C(C(=O)OCC)C2)CC(c2cc(F)cc(F)c2)=NO1 (stereo partly shown): 90
C=CC1(C(=O)NC2C=CC(C(=O)N3CCCO3)C2)CC(c2cc(F)cc(F)c2)=NO1 (stereo not shown): 90
Cc1cc(F)cc(C2=NOC(C(=O)N[C@H]3C=C[C@@H](C(=O)OCCCl)C3)(C(F)(F)F)C2)c1 (stereo partly shown): 80
C=CC1(C(=O)NC2C=CC(C(=O)O)C2)CC(c2cc(F)cc(F)c2)=NO1 (mixture of isomers): 80
COC(=O)C1C=CC(NC(=O)C2(C)CC(c3cccc(C#N)c3)=NO2)C1 (mixture of isomers): 90

Sample C=CC1(C(=O)NC2CC=C(C(=O)NS(N)(=O)=O)C2)CC(c2cc(F)cc(F)c2)=NO1 (mixture of isomers) , system: PHBPU. Its Herbicidal action against [%] PHBPU is 90

Sample COC(=O)C1=CC[C@H](NC(=O)C2(C)CC(c3cc(F)cc(F)c3)=NO2)C1 (stereo partly shown) , system: PHBPU. Its Herbicidal action against [%] PHBPU is 90

Sample O=C(OCC(F)(F)F)[C@@H]1C=C[C@H](NC(=O)C2(C(F)(F)F)CC(c3ccccc3)=NO2)C1 (stereo partly shown) , system: PHBPU. Its Herbicidal action against [%] PHBPU is 80

Sample CC1(C(=O)N[C@H]2CC=C(C(=O)O)C2)CC(c2cccc(F)c2)=NO1 (stereo partly shown) , system: PHBPU. Its Herbicidal action against [%] PHBPU is 80

Sample C=C[C@]1(C(=O)N[C@H]2C=C[C@H](C(=O)OC)C2)CC(c2cc(F)cc(F)c2)=NO1 , system: PHBPU. Its Herbicidal action against [%] PHBPU is 80

====

tested on: ABUTH; experiment: Post-emergence herbicidal action against ABUTH; assay type: in vivo, Abutilon theophrasti; details: application rate 80 g/ha, rated visually about 3 weeks after treatment
This listing pairs molecules with measured Herbicidal action against [%] ABUTH.
Write down the numeric answer in % and omit the unit.

Record excerpt, results attached:
COc1cc(OC)cc(C2=NOC(C(=O)NC3C=CC(C(=O)OCCCl)C3)(C(F)(F)F)C2)c1 (mixture of isomers): 90
COC(=O)C1C=CC(NC(=O)C2(C(F)(F)F)CC(c3cc(Cl)cc(Cl)c3)=NO2)C1 (mixture of isomers): 80
C=CC1(C(=O)N[C@H]2C=C[C@@H](C(=O)OCC(F)(F)F)C2)CC(c2cc(F)cc(F)c2)=NO1 (some centres unmarked): 90

Sample COCCOC(=O)C1C=CC(NC(=O)C2(C(F)(F)F)CC(c3cccc(C#N)c3)=NO2)C1 (mixture of isomers) , system: ABUTH. Its Herbicidal action against [%] ABUTH is 90

Sample COC(=O)C1C=CC(NC(=O)C2(C(F)(F)F)CC(c3cc(C)cc(C)c3)=NO2)C1 (mixture of isomers) , system: ABUTH. Its Herbicidal action against [%] ABUTH is 80

====

This listing pairs molecules with measured Herbicidal action against [%] ABUTH.
test system: ABUTH; assay: Post-emergence herbicidal action against ABUTH; assay type: in vivo, Abutilon theophrasti; conditions: application rate 80 g/ha, rated visually about 3 weeks after treatment
Write down the numeric answer in % and omit the unit.

Record excerpt, results attached:
C=CC1(C(=O)NC2C=CC(C(=O)OCC)C2)CC(c2cc(F)cc(F)c2)=NO1 (centres unmarked) [Example I-013]: 80
CC(C)(C)OC(=O)[C@@H]1C=C[C@H](NC(=O)C2(C)CC(c3cc(F)cc(F)c3)=NO2)C1 (some centres unmarked) [Example I-007]: 80

Sample CC1(C(=O)NC2C=CC(C(=O)OCCCl)C2)CC(c2cccc(C#N)c2)=NO1 (mixture of isomers) [Example I-079] ; Herbicidal action against [%] ABUTH observed: 80

Sample COC(=O)C1C=CC(NC(=O)C2(C)CC(c3cc(F)cc(C#N)c3)=NO2)C1 (mixture of isomers) [Example I-084] ; Herbicidal action against [%] ABUTH observed: 90

Sample C=CC1(C(=O)N[C@H]2C=C[C@@H](C(=O)OCCC(F)(F)F)C2)CC(c2cc(F)cc(F)c2)=NO1 (some centres unmarked) [Example I-017] ; Herbicidal action against [%] ABUTH observed: 100

Sample O=C(O)C1=C[C@@H](NC(=O)[C@@]2(C(F)(F)F)CC(c3cc(F)cc(F)c3)=NO2)CC1 [Example V-04] ; Herbicidal action against [%] ABUTH observed: 80

Sample C=CC1(C(=O)NC2C=CC(C(=O)OC)C2)CC(c2cc(F)cc(F)c2)=NO1 (mixture of isomers) [Example I-035] ; Herbicidal action against [%] ABUTH observed: 80

Sample COC(=O)[C@H]1C=C[C@H](NC(=O)[C@@]2(C(F)(F)F)CC(c3cc(F)cc(F)c3)=NO2)C1 [Example I-062] ; Herbicidal action against [%] ABUTH observed: 80

Sample CC1(C(=O)N[C@H]2C=C[C@@H](C(=O)OCC(F)(F)F)C2)CC(c2cc(F)cc(F)c2)=NO1 (some centres unmarked) [Example I-010] ; Herbicidal action against [%] ABUTH observed: 80

Sample COC(=O)C1C=CC(NC(=O)C2(C(F)(F)F)CC(c3cccc(Cl)c3)=NO2)C1 (mixture of isomers) [Example I-046] ; Herbicidal action against [%] ABUTH observed: 90

Sample COC(=O)C1C=CC(NC(=O)C2(C(F)(F)F)CC(c3cc(C)cc(C(F)(F)F)c3)=NO2)C1 (mixture of isomers) [Example I-048] ; Herbicidal action against [%] ABUTH observed: 80

====

This listing pairs molecules with measured Herbicidal action against [%] AVEFA.
tested on: AVEFA; test: Pre-emergence herbicidal action against AVEFA; format: in vivo, Avena fatua; settings: application rate 80 g/ha, scored visually after about 3 weeks vs untreated controls (100% = plants have died, 0% = like control plants)
Write down the numeric answer in % and omit the unit.

Record excerpt, results attached:
CC1(C(=O)N[C@H]2C=C[C@@H](C(=O)N3CCCO3)C2)CC(c2cc(F)cc(F)c2)=NO1 (stereo partly shown): 90
CCOC(=O)[C@@H]1C=C[C@H](NC(=O)C2(C)CC(c3cccc(F)c3)=NO2)C1 (stereo partly shown): 90
CONC(=O)C1=CCC(NC(=O)C2(C)CC(c3cccc(F)c3)=NO2)C1 (mixture of isomers): 90
COC(=O)[C@@H]1C=C[C@H](NC(=O)C2(C)CC(c3cccc(F)c3)=NO2)C1 (stereo partly shown): 90
CC1(C(=O)NC2CC=C(C(=O)NS(C)(=O)=O)C2)CC(c2cccc(F)c2)=NO1 (mixture of isomers): 80

Sample C=CC1(C(=O)NC2C=CC(C(=O)OCC)C2)CC(c2cc(F)cc(F)c2)=NO1 (stereo not shown) , system: AVEFA. Its Herbicidal action against [%] AVEFA is 100

Sample CC1(C(=O)NC2C=CC(C(=O)N3CCCCO3)C2)CC(c2cc(F)cc(F)c2)=NO1 (mixture of isomers) , system: AVEFA. Its Herbicidal action against [%] AVEFA is 80

====

This listing pairs compounds with measured Herbicidal action against [%] ABUTH.
tested on: ABUTH; experiment: Post-emergence herbicidal action against ABUTH; format: in vivo, Abutilon theophrasti; details: application rate 80 g/ha, rated visually about 3 weeks after treatment
Write down the numeric answer in % and omit the unit.

Record excerpt, results attached:
O=C(C1C=CC(NC(=O)C2(C(F)(F)F)CC(c3cc(F)cc(F)c3)=NO2)C1)N1CCCO1 (mixture of isomers) [II-32]: 80
CCOC(=O)C1C=CC(NC(=O)C2(C(F)(F)F)CC(c3cccc(Cl)c3)=NO2)C1 (mixture of isomers) [Example I-042]: 80

Kindly review the next compound as well.
Sample COC(=O)[C@@H]1C=C[C@H](NC(=O)C2(C(F)(F)F)CC(c3cc(C)cc(F)c3)=NO2)C1 (stereo partly drawn) [Example I-024] ; Herbicidal action against [%] ABUTH observed: 80
